Where do these numbers come from? They come from ChEMBL document CHEMBL3616445.

SYSTEM TESTED: Delta-type opioid receptor (Homo sapiens)
Sequence (P41143 whole entry): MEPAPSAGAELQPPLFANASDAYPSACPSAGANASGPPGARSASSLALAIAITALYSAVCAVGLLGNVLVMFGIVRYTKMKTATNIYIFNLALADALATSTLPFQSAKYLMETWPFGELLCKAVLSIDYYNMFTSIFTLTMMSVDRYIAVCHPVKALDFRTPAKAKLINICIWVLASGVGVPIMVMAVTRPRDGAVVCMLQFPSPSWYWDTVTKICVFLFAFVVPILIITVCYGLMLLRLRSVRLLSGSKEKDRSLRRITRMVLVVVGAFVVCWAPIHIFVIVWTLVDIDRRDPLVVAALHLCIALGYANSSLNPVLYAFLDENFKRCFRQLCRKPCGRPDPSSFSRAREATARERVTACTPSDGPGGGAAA
METHOD SUMMARY: Displacement of [3H]DPDPE from human delta opiod receptor
Please provide measured IC50 for the entries that follow.
Respond numerically; units are µM and should not be typed.

[in] Given `CSCC[C@H](NC(=O)[C@H](Cc1ccccc1)NC(=O)[C@@H](C)NC(=O)[C@@H](N)Cc1ccc(O)cc1)C(=O)N[C@H](CCCNC(=N)N)C(=O)N[C@@H](CCCNC(=N)N)C(=O)N1CCC[C@H]1C(=O)N1C[C@H](O)C[C@H]1C(=O)NCC(=O)N[C@@H](Cc1cccs1)C(=O)N[C@@H](CO)C(=O)N1Cc2ccccc2C[C@@H]1C(=O)N1[C@H](C(=O)N[C@@H](CCCNC(=N)N)C(=O)O)C[C@@H]2CCCC[C@@H]21` , respond with its IC50.
[out] 17

[in] Quickly give me recorded IC50 for `C[C@@H](NC(=O)[C@@H](N)Cc1ccc(O)cc1)C(=O)NCC(=O)N[C@@H](Cc1ccccc1)C(=O)N[C@H](CCCNC(=N)N)C(=O)N[C@@H](CCCNC(=N)N)C(=O)N1CCC[C@H]1C(=O)N1C[C@H](O)C[C@H]1C(=O)NCC(=O)N[C@@H](Cc1cccs1)C(=O)N[C@@H](CO)C(=O)N1Cc2ccccc2C[C@@H]1C(=O)N1[C@H](C(=O)N[C@@H](CCCNC(=N)N)C(=O)O)C[C@@H]2CCCC[C@@H]21`
[out] 4.17

[in] Give the reported value of IC50 for this record: `C[C@@H](NC(=O)[C@@H](N)Cc1ccc(O)cc1)C(=O)NCC(=O)N[C@@H](Cc1ccccc1)C(=O)NCCCCCCCC(=O)N[C@H](CCCNC(=N)N)C(=O)N[C@@H](CCCNC(=N)N)C(=O)N1CCC[C@H]1C(=O)N1C[C@H](O)C[C@H]1C(=O)NCC(=O)N[C@@H](Cc1cccs1)C(=O)N[C@@H](CO)C(=O)N1Cc2ccccc2C[C@@H]1C(=O)N1[C@H](C(=O)N[C@@H](CCCNC(=N)N)C(=O)O)C[C@@H]2CCCC[C@@H]21`
[out] 0.00468
